src = patent US11497751B2

tgt: N-terminal 6His-tagged ROCK2 catalytic domain 11-552 (Homo sapiens)
Sequence (O75116 11-552): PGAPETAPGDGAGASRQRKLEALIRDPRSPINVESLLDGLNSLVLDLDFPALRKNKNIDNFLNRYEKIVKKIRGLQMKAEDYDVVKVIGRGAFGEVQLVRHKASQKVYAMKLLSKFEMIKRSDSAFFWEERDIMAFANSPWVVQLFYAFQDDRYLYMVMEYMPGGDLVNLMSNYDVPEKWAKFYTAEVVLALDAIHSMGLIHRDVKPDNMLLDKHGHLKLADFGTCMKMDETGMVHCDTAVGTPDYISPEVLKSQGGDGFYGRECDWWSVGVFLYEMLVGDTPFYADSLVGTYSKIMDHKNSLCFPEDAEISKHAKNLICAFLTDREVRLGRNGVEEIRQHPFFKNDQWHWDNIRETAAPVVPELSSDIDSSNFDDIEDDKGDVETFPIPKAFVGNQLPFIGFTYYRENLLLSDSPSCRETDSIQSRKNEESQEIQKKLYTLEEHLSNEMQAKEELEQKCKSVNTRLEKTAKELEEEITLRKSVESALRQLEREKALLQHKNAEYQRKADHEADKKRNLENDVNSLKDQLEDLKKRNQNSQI
reportedMetric: IC50

Worked cases, answers included:
{"substanceSmiles": "COc1cc(-c2nc(Nc3ccc4[nH]ncc4c3C3CC3)n(C)n2)ccc1C(=O)NC(C)C", "experimentalValue": "< 300 nM"}
{"substanceSmiles": "COc1cc(-c2nc(Nc3ccc4[nH]ncc4c3)nn2C)ccc1OCC(=O)NC(C)C", "experimentalValue": "300 to 3000 nM"}
{"substanceSmiles": "CCNC(=O)c1ccc(-c2nc(Nc3ccc4[nH]ncc4c3Cl)n(C)n2)c(OC)c1", "experimentalValue": "< 300 nM"}

Now, please, on to the next compound.
IN: # lookup: N-terminal 6His-tagged ROCK2 catalytic domain 11-552 (Homo sapiens) IC50, key = COC(=O)c1ccc(-c2nc(Nc3ccc4[nH]ncc4c3C3CC3)n(C)n2)cc1OC
OUT: < 300 nM
